# procedure.details: in vitro
# test.parameters: human
So basically, if CC50 comes in under 40 µM it's y, and if it's 40 µM or more it's n.

Please review the following examples before continuing.
Cc1nc(-c2ccc(C3N(C)c4ccc(F)cc4C(=O)N3c3cccc(O)c3O)s2)cs1 (stereo not drawn) : y
Cc1nc(-c2ccc(C3N(C)c4ccc(F)cc4C(=O)N3c3ccc(O)cc3O)s2)cs1 (stereo not drawn) : y
Cc1nc(-c2ccc(C3N(C)c4ccc(F)cc4C(=O)N3c3cc(O)cc(O)c3)s2)cs1 (stereo not drawn) : y
Cc1nc(-c2ccc(C3N(C)c4ccc(F)cc4C(=O)N3c3cccc(O)c3)s2)cs1 (stereo not drawn) : y
Cc1nc(-c2ccc(C3N(C)c4ccc(F)cc4C(=O)N3c3ccccc3N)s2)cs1 (stereo not drawn) : n
Cc1nc(-c2ccc(C3N(C)c4ccc(F)cc4C(=O)N3c3c(O)cccc3O)s2)cs1 (stereo not drawn) : n
Cc1nc(-c2ccc(C3N(C)c4ccc(F)cc4C(=O)N3c3ccccc3)s2)cs1 (stereo not drawn) : n

--- query ---
Query: Quick check: does Cc1nc(-c2ccc(C3N(C)c4ccc(F)cc4C(=O)N3c3cc(O)ccc3O)s2)cs1 (stereo not drawn) have CC50 under 40 µM?
Response: y
